- Tested on: K-562 leukemia
- procedure-text: NCI tumour cell line growth inhibition, 48 h
Recorded measurements of TGI, one per entry

Previously resolved entries follow.
molecule: O=C1Cc2c([nH]c3ccccc23)-c2ccccc2N1
TGI: > 100 µM
//
molecule: CC1=C(C(=O)Nc2cc(=O)n(C)c(=O)n2C)C(c2cccc([N+](=O)[O-])c2)C(C(=O)Nc2cc(=O)n(C)c(=O)n2C)=C(C)N1
TGI: > 100 µM
//
molecule: N#CC1=C(N)Oc2c(ccc3ccccc23)C1c1ccccc1 (centres undefined)
TGI: 22.6 µM

Prompt: Supply reported TGI belonging to this molecule: COc1cccc(C2c3cc4c(cc3OC(N3CCOCC3)C2C)OCO4)c1OC (centres undefined)
Completion: 21.1 µM

Prompt: Supply reported TGI belonging to this molecule: COc1cc2ncn(-c3cc(O[C@@H](C)c4ccccc4Cl)c(C(N)=O)s3)c2cc1OC
Completion: > 25 µM

Prompt: Supply reported TGI belonging to this molecule: C=C1C(=O)O[C@H]2[C@H]1CC/C(COC(=O)C(=O)c1cn(C)c3ccc(Cl)cc13)=C\CC[C@@]1(C)O[C@@H]21
Completion: > 100 µM

Prompt: Supply reported TGI belonging to this molecule: COc1ccc(S(=O)(=O)NC(CCC(=O)NN)C(=O)NN)cc1 (centres undefined)
Completion: > 100 µM

Prompt: Supply reported TGI belonging to this molecule: COC(=O)C1=C(O)c2cc(-c3ccccc3)c(-c3ccccc3)c(C#N)c2NC(=O)C1
Completion: > 100 µM

Prompt: Supply reported TGI belonging to this molecule: Cc1cc(=O)oc2c(C)c(O)ccc12
Completion: > 100 µM

Prompt: Supply reported TGI belonging to this molecule: CC12CCC(C(Nc3cc(C(F)(F)F)cc(C(F)(F)F)c3)C1=O)C2(C)C (centres undefined)
Completion: > 100 µM

Prompt: Supply reported TGI belonging to this molecule: O=C1c2ccccc2C(=O)N1CC1S(=O)(=O)OCCOS1(=O)=O
Completion: > 100 µM

Prompt: Supply reported TGI belonging to this molecule: COC(=O)c1ccccc1C1CN=NC12Cc1ccccc1C2=O (centres undefined)
Completion: > 100 µM

Prompt: Supply reported TGI belonging to this molecule: Cc1nc(C(N)=S)sc1C(=O)CC(=O)C(=O)Nc1ccccc1[N+](=O)[O-]
Completion: > 100 µM

Prompt: Supply reported TGI belonging to this molecule: O=P1(Oc2ccc(Cl)cc2Cl)Oc2ccc3ccccc3c2-c2c(ccc3ccccc23)O1
Completion: > 100 µM

====

- Tested on: DLD-1 colon
- procedure-text: NCI tumour cell line growth inhibition, 48 h
Recorded measurements of TGI, one per entry

Previously resolved entries follow.
compound: COc1ccc(C2SCC(=O)N2NC(=O)c2ccncc2)cc1F (stereo not drawn)
TGI: > 100 µM

compound: COc1cc(OC)c(SSCCCCS(=O)O)c(OC)c1
TGI: 41.1 µM

compound: CC(C)(C)CC(C)(C)c1cc2c(O)c(c1)Cc1cc(C(C)(C)CC(C)(C)C)cc(c1O)Cc1cc(C(C)(C)CC(C)(C)C)cc(c1O)Cc1cc(C(C)(C)CC(C)(C)C)cc(c1O)Cc1cc(C(C)(C)CC(C)(C)C)cc(c1O)C2
TGI: > 100 µM

compound: CC(=O)NC1=C(NC(C)(C)C)C(=O)c2ccccc2C1=O
TGI: 34.3 µM

compound: O=C(Nc1ccc(Cl)cc1Cl)C1C(=O)C(=O)N(c2ccc(Cl)cc2Cl)C1=O (stereo not drawn)
TGI: > 100 µM

Prompt: Supply reported TGI belonging to this compound: CCOC(=O)Cc1ccc2c(c1O)C(=O)c1c(ccc(CC(=O)OCC)c1O)C2=O
Completion: > 100 µM

Prompt: Supply reported TGI belonging to this compound: O=C1C=CC(=O)C12CCc1ccccc12
Completion: > 100 µM

Prompt: Supply reported TGI belonging to this compound: CCCCCCCCCCCCCCCCCCN(C)C(COC)COP(=O)([O-])OCC[N+](C)(C)C (stereo not drawn)
Completion: 13.8 µM

Prompt: Supply reported TGI belonging to this compound: Cc1nc(C(N)=S)sc1C(=O)CC(=O)C(=O)Nc1ccccc1[N+](=O)[O-]
Completion: > 100 µM

Prompt: Supply reported TGI belonging to this compound: CC(=O)[CH-]C(=O)c1ccccc1.CC(=O)[CH-]C(=O)c1ccccc1.CC(C)CCCC(C)[C@H]1CCC2[C@@H]3CC=C4C[C@@H]([O-])CC[C@]4(C)C3CC[C@@]21C.CC(C)CCCC(C)[C@H]1CCC2[C@@H]3CC=C4C[C@@H]([O-])CC[C@]4(C)C3CC[C@@]21C.[Ti+4] (stereo partly drawn)
Completion: > 100 µM

Prompt: Supply reported TGI belonging to this compound: CCN(CC)CCCNC(=O)C1COc2cc(-c3cc(=O)c4ccccc4o3)ccc2O1 (stereo not drawn)
Completion: > 100 µM

====

Recorded measurements of TGI, one per entry
- System: CCRF-CEM leukemia
- procedure-text: NCI tumour cell line growth inhibition, 48 h

Previously resolved entries follow.
substance-smiles: O=C(Nc1ccccc1)c1cc2ccccc2c(N=Nc2ccc([N+](=O)[O-])cc2)c1O
target-system: CCRF-CEM leukemia
TGI: 46.4 µM
--
substance-smiles: O=C1C=CC(=O)C12CCc1ccccc12
target-system: CCRF-CEM leukemia
TGI: > 95.2 µM
--
substance-smiles: CCOP(=O)(OCC)/C(=C/NC(=S)c1ccncc1)C(=O)OC
target-system: CCRF-CEM leukemia
TGI: 64.8 µM
--
substance-smiles: COc1cc(N2CCC(N3CCN(C)CC3)CC2)ccc1Nc1ncnc(Nc2ccccc2S(=O)(=O)C(C)C)n1
target-system: CCRF-CEM leukemia
TGI: > 42.7 µM

Now turn to the next molecule.
Prompt: Supply reported TGI belonging to this molecule: CC1=C[C@]2(O)C(=O)[C@H](C)C[C@H]3[C@@H](CC[C@@](C)(O)/C=C\2C1=O)C3(C)C
Completion: > 100 µM

====

- System: HL-60(TB) leukemia
- procedure-text: NCI tumour cell line growth inhibition, 48 h; in the data active = GI50 below about 0.43 µM; inactive = the rest
Hello, when you answer, please use one of the following outcomes: active, inactive

Example entries and their recorded answers appear below.
molecule: CC(=O)N1C/C(=C/c2ccc(Cl)cc2)C(=O)/C(=C/c2ccc(Cl)cc2)C1
qualitative-label: inactive

molecule: COC(=O)c1cc2c3ccccc3n3c(=O)c4cc5ccccc5nc4c(n1)c23
qualitative-label: inactive

molecule: CNC(=S)NC(=O)c1c(Cl)n(C(=O)OC(C)(C)C)c2ccccc12
qualitative-label: inactive

molecule: Cc1c2c(cc[n+]1Cc1ccccc1)c1ccc(OCc3ccccc3)cc1n2Cc1ccccc1
qualitative-label: active

molecule: Cc1ccc(Cc2cnc(NC(=O)/C=C/c3cccc(C)c3)s2)cc1
qualitative-label: active

Prompt: Hey, what did the test say about NC1CCC(Nc2nc(NCc3ccc(-c4ccccc4O)nc3)c3ncn(C4CCCC4)c3n2)CC1 (stereo not given) ?
Completion: active

Prompt: Hey, what did the test say about Cc1nc2sc(C(=O)Nc3cccc4ccccc34)c(N)c2cc1C(O)c1ccccc1 (stereo not given) ?
Completion: active

Prompt: Hey, what did the test say about O=c1cc(N2CCN(CCCCCOc3cc(O)c4c(=O)cc(-c5ccccc5)oc4c3)CC2)c2ccccc2o1 ?
Completion: inactive

Prompt: Hey, what did the test say about COc1cc(-c2ccc(-c3ccc(C(=N)N)nc3)s2)cc(OC)c1OC ?
Completion: inactive

Prompt: Hey, what did the test say about O=C1NC(=O)C(c2ccccc2Cl)=C1Nc1cc(Cl)c(O)c(Cl)c1 ?
Completion: inactive

====

- Tested on: NCI-H460 lung
- procedure-text: NCI tumour cell line growth inhibition, 48 h
quantity: TGI

molecule: CCN1C(=O)C(=C/C=C/C=C2/N(C)c3ccccc3C2(C)C)C(=O)N(CC)C1=S
TGI: > 100 µM
--
molecule: O=C1c2ccccc2C(=O)N1CC1S(=O)(=O)OCCOS1(=O)=O
TGI: > 100 µM
--
molecule: C=C(C#N)C1OCC2OC(C)(C)OC21 (stereo not given)
TGI: 57.4 µM
--
molecule: CC1C/C(=C\c2ccc(OC(=O)C(C)(C)C)cc2)C(=O)/C(=C/c2ccc(OC(=O)C(C)(C)C)cc2)C1 (stereo not given)
TGI: > 100 µM
--
molecule: COc1cc(S(=O)(=O)Nc2nc(-c3ccc(N4C(=O)/C(=C/C=C/c5ccccc5)N=C4c4ccccc4)cc3)cs2)ccc1Cl
TGI: > 100 µM
--
molecule: COc1cc(/C=C2\N=C(c3ccccc3)N(c3nc4cc(C)c(C)cc4s3)C2=O)ccc1O
TGI: > 100 µM
--
molecule: CC(C)OP(=O)(OC(C)C)c1nc(-c2ccccc2)n(-c2ccc([N+](=O)[O-])cc2)n1
TGI: > 100 µM
--
molecule: CN1C/C(=C\c2cccs2)C2=NN(C)C(c3cccs3)C2C1 (stereo not given)
TGI: > 100 µM

Prompt: State recorded TGI with NCI-H460 lung, entry CN(C)CC1CN=C(N)O1 (stereo not given) , no comment.
Completion: > 100 µM

Prompt: State recorded TGI with NCI-H460 lung, entry COc1ccc(/C(=N\NC(=O)C(=O)NN)C(c2ccc(OC)cc2)C2(O)C(=O)Nc3ccccc32)cc1 (stereo not given) , no comment.
Completion: > 100 µM
